- Tested on: Mycobacterium avium complex sp.
- Procedure Summary: Antimycobacterial activity against Mycobacterium avium complex N016 after 14 days by broth microdilution method
- Type: functional
- Measurement Setup: N016, 336 h
In this section we review reported MIC values for a set of compounds.

| Compound | MIC |
| --- | --- |
| CC[C@H]1OC(=O)[C@H](C)[C@@H](O[C@H]2C[C@@](C)(OC)[C@@H](O)[C@H](C)O2)[C@H](C)[C@@H](O[C@@H]2O[C@H](C)C[C@H](N(C)C)[C@H]2O)[C@](C)(OC)C[C@@H](C)C(=O)[C@H](C)[C@@H](O)[C@]1(C)O | 2 µg/mL |
| COc1c(N2CCNC(C)C2)c(F)cc2c(=O)c(C(=O)O)cn(C3CC3)c12 (centres undefined) | 0.5 µg/mL |
| COc1c(N2C[C@@H]3CCCN[C@@H]3C2)c(F)cc2c(=O)c(C(=O)O)cn(C3CC3)c12 | 0.5 µg/mL |
| C[C@H]1COc2c(N3CCN(C)CC3)c(F)cc3c(=O)c(C(=O)O)cn1c23.C[C@H]1COc2c(N3CCN(C)CC3)c(F)cc3c(=O)c(C(=O)O)cn1c23.O | 2 µg/mL |
